target: T1, PP1α_(7-330) R96A (UniProt P62136 7-330, R96A); assay: SPR; His6-PP1 constructs or SDS22_(56-360):PP1α_(7-330) captured on a Ni-NTA chip (NiHC200M), I3 and variants injected; 25 °C; 20 mM Tris pH 8.0, 500 mM NaCl, 0.5 mM TCEP, 0.05% Tween-20; one-to-one one-state or two-state fit; details: both partners purified
T1 construct: Protein phosphatase 1 alpha catalytic subunit (PP1α), residues 7-330; also called PP1_(R96A); PP1_(7-330) R96A
T1 sequence (P62136 7-330 R96A): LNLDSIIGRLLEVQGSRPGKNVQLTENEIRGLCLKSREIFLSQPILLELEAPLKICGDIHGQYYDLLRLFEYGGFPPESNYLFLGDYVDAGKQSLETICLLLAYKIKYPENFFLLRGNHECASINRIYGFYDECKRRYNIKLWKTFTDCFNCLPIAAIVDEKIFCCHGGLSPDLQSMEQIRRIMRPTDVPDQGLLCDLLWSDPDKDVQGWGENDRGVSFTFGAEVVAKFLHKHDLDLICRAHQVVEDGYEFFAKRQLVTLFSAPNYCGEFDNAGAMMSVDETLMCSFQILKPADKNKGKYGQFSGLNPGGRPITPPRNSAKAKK
quantity name: Kd (nM)

binder="SLTIKLRKRKPEKKVEWTSDTVDNEHMGRRSSKCCCIYEKPR (domain or fragment, human, UniProt O60927 27-68, looked up, source: E. coli BL21 (DE3), purified (Ni-NTA, TEV, heat 95 °C, SEC); not shown: His6, N-terminal, cleaved; MBP, N-terminal, cleaved) [I3_(27-68)]" measure_unit=nM reported_value=12
